# TARGET_SYSTEM: T1, PUF4 RNA-binding domain (Saccharomyces cerevisiae, UniProt P25339 537-888)
# T1 sequence: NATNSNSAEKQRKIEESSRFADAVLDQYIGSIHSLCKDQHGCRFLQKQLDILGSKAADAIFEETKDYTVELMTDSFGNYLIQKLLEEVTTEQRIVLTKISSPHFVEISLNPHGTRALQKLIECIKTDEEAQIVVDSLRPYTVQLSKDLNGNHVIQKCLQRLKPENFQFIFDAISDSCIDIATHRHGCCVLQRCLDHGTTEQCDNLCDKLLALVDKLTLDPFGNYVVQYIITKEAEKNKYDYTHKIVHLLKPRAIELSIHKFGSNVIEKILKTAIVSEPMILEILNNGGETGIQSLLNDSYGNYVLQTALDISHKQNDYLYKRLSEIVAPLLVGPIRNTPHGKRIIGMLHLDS
# EXPERIMENTAL_PROTOCOL: Mg; RNA-MaP; 20 mM Na-HEPES pH 7.4, 30 mM KOAc, 0.75 mM MgCl2, 0.1% Tween-20, 5% glycerol, 0.1 mg/mL BSA, 2 mM DTT; 25 C; 0.0125-409.6 nM protein
# DETAILS: tags: N-His6-TEV cleaved; C-SNAP kept, Cy3B-labelled; label: tethered on chip by stalled RNA polymerase
Here, each record is paired with measured Kd data.
Answer format: numeric, nM implied, no suffix.

Ic_S4_P4E.1_K4.1_C4.1_H4.1_A4.1_[T5A]_[A6C]_F4.1_[T8A]_[A9T]_T4.1 (ssRNA) RNA: UUUGACAACUGAUCGUUCUUUCUUGUAACUAUUUCUUUCUCGAUCAGUUGUCUUU | 49.4

Per the record, Ic_S2_P3E.1_K3.1_C3.1_H3.1_A3.1_[A6T]_F3.1_[T7G]_[A8C]_T3.1 (ssRNA) RNA: UUUGAUUAAUAUGAUAUCGUUCUUUCUUGUAUUGCUUCUUUCUCGAUAUCAUAUUAAUCUUU has Kd of 442

Per the record, Id_ii_S2_P3E.2_K3.1_C3.2_[C-2T]_[T-1C]_H3.1_A3.1_F3.1_T3.2_[T9C]_[A10G] (ssRNA) RNA: UUUGAUUAAUAUGAUAUCGUUCUUUCUUCUGUAUAUACGUUCUUUCUCGAUAUCAUAUUAAUCUUU has Kd of 7.76

Per the record, UCUCUUUUUGUAUAUCUCUU (ssRNA) [Ib_S1_P3E.1_K3.1_C3.1_H3.1_[G2T]_[A4G]_A3.1_F3.1_T3.1] has Kd of 25.1

Per the record, Ib_S2_P5E.1_K5.1_C5.1_H5.1_A5.1_[T5G]_[A7G]_F5.1_T5.1 (ssRNA) RNA: UUUGAUUAAUAUGAUAUCGUUCUUUCUUGUAGUGUUAUUCUUUCUCGAUAUCAUAUUAAUCUUU has Kd of 9.14
